All figures here come from ChEMBL document CHEMBL2203235.

testProtocol: Drug uptake in CD1 mouse brain at 3 mg/kg, iv at 6 hrs
Type: ADME, organism-based
Design: dose 3 mg/kg, route intravenous
measurementParameters: read-out: Drug uptake
concentration at 6 h listing for selected molecules.
A complete answer gives the number and then names the unit.

- chemicalSmiles: "CCO[C@@H]([C@H]1C[C@@H](C)[C@H]2[C@H](O1)[C@H](O)[C@@]1(C)[C@@H]3CC[C@H]4C(C)(C)[C@@H](O[C@H]5CNCCO5)CC[C@@]45C[C@@]35CC[C@]21C)C(C)(C)O"
  concentration at 6 h: "320 nM"

// below: concentration at 6 h requested for another molecule
Which concentration at 6 h value belongs to CCO[C@@H]([C@H]1C[C@@H](C)[C@H]2[C@H](O1)[C@H](O)[C@@]1(C)[C@@H]3CC[C@H]4C(C)(C)[C@@H](O[C@H]5CN(C6COC6)CCO5)CC[C@@]45C[C@@]35CC[C@]21C)C(C)(C)O ? 12 nM

====

testProtocol: Ratio of drug uptake in brain to plasma in CD1 mouse at 1 mg/kg, iv at 6 hrs
measurementParameters: brain and plasma
testReadout: Kp at 6 h
Answer with a number only.

Use the examples below as a reference point.
- chemicalSmiles: "CC(C)[C@@H](OC(=O)N1CCC1)[C@H]1C[C@@H](C)[C@H]2[C@H](O1)[C@H](O)[C@@]1(C)[C@@H]3CC[C@H]4C(C)(C)[C@@H](OC(=O)N(C)C5CN(C)C5)CC[C@@]45C[C@@]35CC[C@]21C"
  Kp at 6 h: 0.04
- chemicalSmiles: "CCO[C@@H]([C@H]1C[C@@H](C)[C@H]2[C@H](O1)[C@H](O)[C@@]1(C)[C@@H]3CC[C@H]4C(C)(C)[C@@H](OC(=O)N5CCN(CCOC)CC5)CC[C@@]45C[C@@]35CC[C@]21C)C(C)(C)O"
  Kp at 6 h: 0.03
- chemicalSmiles: "CCO[C@@H]([C@H]1C[C@@H](C)[C@H]2[C@H](O1)[C@H](O)[C@@]1(C)[C@@H]3CC[C@H]4C(C)(C)[C@@H](OC(=O)N5CCN(C)CC5)CC[C@@]45C[C@@]35CC[C@]21C)C(C)(C)O"
  Kp at 6 h: 0.13
- chemicalSmiles: "CCO[C@@H]([C@H]1C[C@@H](C)[C@H]2[C@H](O1)[C@H](O)[C@@]1(C)[C@@H]3CC[C@H]4C(C)(C)[C@@H](O[C@H]5CN(C)CCO5)CC[C@@]45C[C@@]35CC[C@]21C)C(C)(C)O"
  Kp at 6 h: 0.76
- chemicalSmiles: "CCO[C@@H]([C@H]1C[C@@H](C)[C@H]2[C@H](O1)[C@H](O)[C@@]1(C)[C@@H]3CC[C@H]4C(C)(C)[C@@H](OC(=O)N(C)C5CN(C)C5)CC[C@@]45C[C@@]35CC[C@]21C)C(C)(C)O"
  Kp at 6 h: 0.1

I'd like to know its Kp at 6 h. The compound in question is CCO[C@@H]([C@H]1C[C@@H](C)[C@H]2[C@H](O1)[C@H](O)[C@@]1(C)[C@@H]3CC[C@H]4C(C)(C)[C@@H](O[C@H]5CN(CCOC)CCO5)CC[C@@]45C[C@@]35CC[C@]21C)C(C)(C)O 0.26

Field request: Kp at 6 h | item: CC(C)[C@@H](OC(=O)N1CCC1)[C@H]1C[C@@H](C)[C@H]2[C@H](O1)[C@H](O)[C@@]1(C)[C@@H]3CC[C@H]4C(C)(C)[C@@H](OC(=O)N5CCN(C)CC5)CC[C@@]45C[C@@]35CC[C@]21C 0.03
